- Tested on: nasopharyngeal carcinoma (SUNE1)
- protocolSummary: MTT cytotoxicity assay, SUNE1
- Format: cell-based, human
- experimentalParameters: 72 h
Mark each entry Condition met if its IC50 sits below 6 µM, and Condition not met for all others.

Solved cases below.
compound	qualitativeLabel
CCCC[n+]1ccn(Cn2cc[n+](CCCC)[c]2[Pt-2]23[c]4ccccc4-c4cccc([n+]42)-c2cccc[n+]23)[c]1[Pt-2]12[c]3ccccc3-c3cccc([n+]31)-c1cccc[n+]12.F[P-](F)(F)(F)(F)F.F[P-](F)(F)(F)(F)F (centres unmarked)	Condition not met
CCCCn1cc[n+](CCO)[c]1[Pt-2]12[c]3ccccc3-c3cccc([n+]31)-c1cc3ccccc3c[n+]12.F[P-](F)(F)(F)(F)F (centres unmarked)	Condition met

Asked: Please indicate whether the reported IC50 of CCCCn1cc[n+](C[n+]2ccn(CCCC)[c]2[Au-]23[c]4cc5ccccc5cc4-c4cc(-c5ccc(OC)cc5)cc([n+]42)-c2cc4ccccc4c[c]23)[c]1[Au-]12[c]3cc4ccccc4cc3-c3cc(-c4ccc(OC)cc4)cc([n+]31)-c1cc3ccccc3c[c]12.O=S(=O)([O-])C(F)(F)F.O=S(=O)([O-])C(F)(F)F is strictly below 6 µM.
Given back: Condition met

Asked: Please indicate whether the reported IC50 of N.N.[Cl][Pt][Cl] [cisplatin, reference compound] is strictly below 6 µM.
Given back: Condition met

Asked: Please indicate whether the reported IC50 of CCCC[n+]1ccn(CCCn2cc[n+](CCCC)[c]2[Pt-2]23[c]4ccccc4-c4cccc([n+]42)-c2cccc[n+]23)[c]1[Pt-2]12[c]3ccccc3-c3cccc([n+]31)-c1cccc[n+]12.F[P-](F)(F)(F)(F)F.F[P-](F)(F)(F)(F)F (centres unmarked) is strictly below 6 µM.
Given back: Condition met
